Tested on: OVCAR-3
Experiment: Growth inhibition of human OVCAR3 cells assessed as cell growth at 10^-5 M after 48 hrs by sulforhodamine B assay relative to control
Format: functional
Conditions: OVCAR-3, 48 h, read-out: Activity
The following compounds are listed with their measured growth at 10 µM values.
readout: growth at 10 µM (%)

Cc1ccc(-c2csc(=N)n2CC(=O)N2CCN(C)CC2)cc1 :: 108
Cc1ccc(-c2csc(=N)n2CC(=O)N2CCOCC2)cc1 :: 108
CC(=O)N1CCN(C(=O)Cn2c(-c3ccc(Cl)cc3)csc2=N)CC1 :: 97.7
Cc1ccc(-c2csc(=N)n2CC(=O)N2CCN(c3ccccc3)CC2)cc1 :: 95.4
N=c1scc(-c2ccc(Cl)cc2)n1CC(=O)N1CCOCC1 :: 108
N=c1scc(-c2ccccc2)n1CC(=O)N1CCN(c2ccccc2)CC1 :: 109
N=c1scc(-c2ccc(Cl)cc2)n1CC(=O)N1CCN(c2ccccc2)CC1 :: 113
CC(=O)N1CCN(C(=O)Cn2c(-c3ccc(C)cc3)csc2=N)CC1 :: 108
CN1CCN(C(=O)Cn2c(-c3ccccc3)csc2=N)CC1 :: 95.4
N=c1scc(-c2ccccc2)n1CC(=O)N1CCOCC1 :: 97
CN1CCN(C(=O)Cn2c(-c3ccc(Cl)cc3)csc2=N)CC1 :: 101
CC(=O)N1CCN(C(=O)Cn2c(-c3ccccc3)csc2=N)CC1 :: 102
